test: Protein binding in Sprague-Dawley rat plasma; format: ADME, cell-free; settings: read-out: PPB
readout-label: fraction unbound

Field request: fraction unbound | item: CCc1nc2ccc(C3CCN(CC(=O)N4CC(O)C4)CC3)cn2c1N(C)c1nc(-c2ccc(F)cc2)c(C#N)s1
< 0.01

====

test: Plasma concentration in Sprague-Dawley rat at 5 mg/kg, po measured after 1 hr by LC-MS/MS method; format: ADME, organism-based
readout-label: concentration at 1 h (nM)
A number alone suffices; assume nM.

Field request: concentration at 1 h | item: CCc1nc2ccc(C3CCN(CC(=O)N4CC(O)C4)CC3)cn2c1N(C)c1nc(-c2ccc(F)cc2)c(C#N)s1
34

====

molecular target: Autotaxin (Rattus norvegicus, UniProt Q64610); test: Inhibition of ATX in rat plasma assessed as reduction in plasma lysophosphatidic acid 18:2 levels after 2 hrs by LC-MS/MS method
Examples of compounds with documented pIC50 follow.
// pIC50 here means minus log10 of the molar concentration (mol/L)

[
  {
    "smi": "CCc1nc2ccc(C3CCN(CC(=O)N(C)C)CC3)cn2c1N(C)c1nc(-c2ccc(F)cc2)cs1",
    "pIC50": 6.32
  }
]

Field request: pIC50 | item: CCc1nc2ccc(C3CCN(CC(=O)N4CCCC4)CC3)cn2c1N(C)c1nc(-c2ccc(F)cc2)cs1
6.94

Quick one: CCc1nc2ccc(C3CCN(S(C)(=O)=O)CC3)cn2c1N(C)c1nc(-c2ccc(F)cc2)cs1
5.99

Quick one: CCOC(=O)N1CCC(NC(=O)c2ccc3nc(CC)c(N(C)c4nc(-c5ccc(Cl)cc5)cs4)n3c2)CC1
4.90

Quick one: CCc1nc2ccc(N3CCN(CCO)CC3)cn2c1N(C)c1nc(-c2ccc(F)cc2)cs1
5.22

Quick one: CCc1nc2ccc(N3CCN(Cc4cnc[nH]4)CC3)cn2c1N(C)c1nc(-c2ccc(F)cc2)cs1
5.39

====

assay: Plasma concentration in Sprague-Dawley rat at 5 mg/kg, po measured after 3 hrs by LC-MS/MS method; assay type: ADME, organism-based
readout-label: concentration at 3 h (nM)
A number alone suffices; assume nM.

Field request: concentration at 3 h | item: CCc1nc2ccc(C3CCN(CC(=O)N4CC(O)C4)CC3)cn2c1N(C)c1nc(-c2ccc(F)cc2)c(C#N)s1
58

====

target: Autotaxin (Homo sapiens); test: Inhibition of glycosylated human ATX using FS-3 as substrate preincubated for 30 mins followed by substrate addition measured after 30 mins by fluorescence assay
readout-label: pIC50
// pIC50 here means minus log10 of the molar concentration (mol/L)

Worked examples follow.
[
  {
    "smi": "CCc1nc2ccc(-c3cccnc3)cn2c1N(C)c1nc(-c2ccc(F)cc2)cs1",
    "tgt": "Autotaxin (Homo sapiens)",
    "readout-label": "pIC50",
    "numeric-result": 8.70
  },
  {
    "smi": "CCOC(=O)N1CCC(NCc2ccc3nc(CC)c(N(C)c4nc(-c5ccc(Cl)cc5)cs4)n3c2)CC1",
    "tgt": "Autotaxin (Homo sapiens)",
    "readout-label": "pIC50",
    "numeric-result": 8.05
  },
  {
    "smi": "CCc1nc2ccc(C(=O)NCCO)cn2c1N(C)c1nc(-c2ccc(Cl)cc2)cs1",
    "tgt": "Autotaxin (Homo sapiens)",
    "readout-label": "pIC50",
    "numeric-result": 6.91
  },
  {
    "smi": "CCOC(=O)N1CCC(NC(=O)c2ccc3nc(CC)c(N(C)c4nc(-c5ccc(Cl)cc5)cs4)n3c2)CC1",
    "tgt": "Autotaxin (Homo sapiens)",
    "readout-label": "pIC50",
    "numeric-result": 8.30
  },
  {
    "smi": "CCc1nc2ccc(N3CCOCC3)cn2c1N(C)c1nc(-c2ccc(F)cc2)cs1",
    "tgt": "Autotaxin (Homo sapiens)",
    "readout-label": "pIC50",
    "numeric-result": 8.10
  }
]

API: the following record is the query input.
Field request: pIC50 | item: CCc1nc2ccc(N3CCN(CCO)CC3)cn2c1N(C)c1nc(-c2ccc(F)cc2)cs1
7.92

====

assay: Half life in mouse at 1 mg/kg, iv; assay type: ADME, organism-based; settings: in vivo
readout-label: half-life (h)
A number alone suffices; assume h.

Field request: half-life | item: CCc1nc2ccc(C3CCN(CC(=O)N4CC(O)C4)CC3)cn2c1N(C)c1nc(-c2ccc(F)cc2)c(C#N)s1
2

====

experiment: Plasma concentration in Sprague-Dawley rat at 5 mg/kg, po measured after 0.5 hrs by LC-MS/MS method; assay type: ADME, organism-based
readout-label: concentration at 0.5 h (nM)
A number alone suffices; assume nM.

Field request: concentration at 0.5 h | item: CCc1nc2ccc(C3CCN(CC(=O)N4CC(O)C4)CC3)cn2c1N(C)c1nc(-c2ccc(F)cc2)c(C#N)s1
67

====

test: Clearance in Sprague-Dawley rat at 1 mg/kg, iv; type: ADME, organism-based; details: in vivo
readout-label: clearance
Express your answer as a number followed by its unit.

Field request: clearance | item: CCc1nc2ccc(C(=O)NCCO)cn2c1N(C)c1nc(-c2ccc(Cl)cc2)cs1
2.5 mL/min/kg

====

target: Autotaxin (Homo sapiens); experiment: Inhibition of glycosylated human ATX using LPC 16:0 as substrate after 30 mins by luminescence assay
Categorized via IC50: lower bin = under 700 nM, middle bin = from 700 nM up to 2000 nM, upper bin = 2000 nM and over

[
  {
    "smi": "CCc1nc2ccc(C3CCN(CC(=O)N4CCCC4)CC3)cn2c1N(C)c1nc(-c2ccc(F)cc2)cs1",
    "label-value": "lower bin"
  },
  {
    "smi": "CCc1nc2ccc(N3CCN(CC(=O)O)CC3)cn2c1N(C)c1nc(-c2ccc(F)cc2)cs1",
    "label-value": "upper bin"
  },
  {
    "smi": "CCOC(=O)CN1CCN(c2ccc3nc(CC)c(N(C)c4nc(-c5ccc(F)cc5)cs4)n3c2)CC1",
    "label-value": "lower bin"
  },
  {
    "smi": "CCc1nc2ccc(C3CCN(S(C)(=O)=O)CC3)cn2c1N(C)c1nc(-c2ccc(OC)cc2)cs1",
    "label-value": "middle bin"
  },
  {
    "smi": "CCc1nc2ccc(C3CCN(S(C)(=O)=O)CC3)cn2c1N(C)c1nc(-c2ccc(F)cc2C)cs1",
    "label-value": "lower bin"
  }
]

Which of the defined bands does the recorded IC50 of CCc1nc2ccc(C3CCN(S(C)(=O)=O)CC3)cn2c1N(C)c1nc(-c2ccc(F)cc2)c(C#N)s1 sit within?
lower bin

Quick one: CCc1nc2ccc(C3CCN(S(C)(=O)=O)CC3)cn2c1N(C)c1nc2ccccc2s1
upper bin

Quick one: CCc1nc2ccc(C3CCN(CC(=O)NC4CC4)CC3)cn2c1N(C)c1nc(-c2ccc(F)cc2)cs1
middle bin

Quick one: CCc1nc2ccc(C3CCN(S(C)(=O)=O)CC3)cn2c1N(C)c1nc(-c2cc(F)cc(F)c2)cs1
upper bin

Quick one: CCc1nc2ccc(N3CCN(CC(=O)N4CCOCC4)CC3)cn2c1N(C)c1nc(-c2ccc(F)cc2)cs1
lower bin

Quick one: CCc1nc2ccc(N3CCN(Cc4ncc[nH]4)CC3)cn2c1N(C)c1nc(-c2ccc(F)cc2)cs1
upper bin

Quick one: CCc1nc2ccc(N3CCN(Cc4cnc[nH]4)CC3)cn2c1N(C)c1nc(-c2ccc(F)cc2)cs1
middle bin

Quick one: CCOC(=O)N1CCC(NC(=O)c2ccc3nc(CC)c(N(C)c4nc(-c5ccc(Cl)cc5)cs4)n3c2)CC1
upper bin

Quick one: CCc1nc2ccc(C3CCN(S(C)(=O)=O)CC3)cn2c1N(C)c1nc(-c2ccc(F)c(F)c2)cs1
middle bin

====

experiment: Volume of distribution at steady state in mouse at 1 mg/kg, iv; format: ADME, organism-based; settings: in vivo, read-out: Vdss
readout-label: Vd (L/kg)
A number alone suffices; assume L/kg.

Field request: Vd | item: CCc1nc2ccc(C3CCN(CC(=O)N4CC(O)C4)CC3)cn2c1N(C)c1nc(-c2ccc(F)cc2)c(C#N)s1
1.7

====

test: Half life in Sprague-Dawley rat at 1 mg/kg, iv; type: ADME, organism-based; settings: in vivo
readout-label: half-life
Express your answer as a number followed by its unit.

Field request: half-life | item: CCc1nc2ccc(C3CCN(CC(=O)N4CC(O)C4)CC3)cn2c1N(C)c1nc(-c2ccc(F)cc2)c(C#N)s1
2.1 h

====

target: Autotaxin (Rattus norvegicus); experiment: Inhibition of ATX in rat plasma assessed as reduction in plasma lysophosphatidic acid 18:2 levels after 2 hrs by LC-MS/MS method
readout-label: IC50

[
  {
    "smi": "CCOC(=O)N1CCC(NCc2ccc3nc(CC)c(N(C)c4nc(-c5ccc(Cl)cc5)cs4)n3c2)CC1",
    "readout-label": "IC50",
    "result": "< 5 µM"
  },
  {
    "smi": "CCc1nc2ccc(N3CCOCC3)cn2c1N(C)c1nc(-c2ccc(F)cc2)cs1",
    "readout-label": "IC50",
    "result": "> 50 µM"
  },
  {
    "smi": "CCc1nc2ccc(C(=O)NCCO)cn2c1N(C)c1nc(-c2ccc(Cl)cc2)cs1",
    "readout-label": "IC50",
    "result": "> 50 µM"
  }
]

API: the following record is the query input.
Field request: IC50 | item: CCc1nc2ccc(-c3cccnc3)cn2c1N(C)c1nc(-c2ccc(F)cc2)cs1
> 50 µM
